# System: P. falciparum male gametocytes
# Assay notes: P. falciparum Dual Gamete Formation Assay (PfDGFA), male readout (exflagellation)
# Type: cell-based, Plasmodium falciparum NF54
# Run conditions: 2µM, 24h preincubation with gametocytes; replicate R1
Reported % inhibition male (individual replicates) R1 is given for each of the following molecules.
Write the value in % as a bare number.

In [3]: df
Out[3]:
                                chem_smiles              measurement_target  observed_value
0  CNC(=O)c1ccccc1Nc1nc(Nc2ccc(CCN3CCN(C)CC3)cc2)ncc1Cl.Cl  P. falciparum male gametocytes            94.6

Given the molecule "CS(=O)(=O)O.FC(F)(F)COc1ccc(CCNCCCCNCCc2ccc(OCC(F)(F)F)c3ccccc23)c2ccccc12" , what is its reported % inhibition male (individual replicates) R1?
98.3

Please look up its % inhibition male (individual replicates) R1: "Clc1ccc(/N=C(/NCCCCCCCN/C(=N\c2ccc(Cl)cc2)Nc2ccc(Cl)cc2)Nc2ccc(Cl)cc2)cc1"
95.9

Given the molecule "CNC(=O)c1ccccc1Nc1nc(Nc2cccc(CS(C)(=O)=O)c2)ncc1C.O=CO" , what is its reported % inhibition male (individual replicates) R1?
93.6

###

# System: P. falciparum female gametocytes
# Assay notes: P. falciparum Dual Gamete Formation Assay (PfDGFA), female readout (Pfs25-positive female gametes)
# Format: cell-based, Plasmodium falciparum NF54
# Run conditions: 2µM, 24h preincubation with gametocytes prior to induction of gametogenesis; replicate R4
# Description: […] The Pf DGFA was performed as described in Delves et al. 2016 [17]. […] Exflagellation was recorded by capturing 10 frames over 1 s under brightfield illumination using a x4 objective with a 1.5x zoom (effectively x6) attached to an automated Nikon Ti fluorescence microscope. […] The plates were then returned to the microscope and female gametes imaged at x6 using fluorescence microscopy. […]
Recorded metric: % inhibition female (individual replicates) R4 (%)
Give the quantity in %, number only.

In [3]: df
Out[3]:
                                   compound  observed_value
0  COc1ccc2nc(-c3ccccc3)cc(NCCCNc3cc(-c4ccccc4)nc4ccc(OC)cc34)c2c1.Cl            23.4
1  CCOc1ccc2c(=NN=Cc3ccc(OC)c(OC)c3)cc(C)[nH]c2c1            40.7
2  COc1ccc(CNC2Cc3ccccc3C2)cc1-c1cccc(S(=O)(=O)NCCN2CCCC2)c1.O=C(O)C(F)(F)F            55.1

Any idea what its % inhibition female (individual replicates) R4 is? The compound is "Cc1cccc2nc(-c3ccc(-c4cccc(CNC5CCN(C)CC5)c4)s3)[nH]c12.O=C(O)C(F)(F)F"
22.3

// query % inhibition female (individual replicates) R4 value for entry COc1cc2ccccc2cc1OCCCN1CCN(CC(c2ccc(F)cc2)N2CCN(C(C)C)CC2)CC1.Cl (stereo not shown)
29.0

For the compound shown here, COc1cccc(-c2csc(C(=O)NCC3CCN(Cc4ccc(C(C)(C)C)cc4)C3)c2)c1.O=C(O)C(F)(F)F (stereo not shown) , give the reported % inhibition female (individual replicates) R4.
78.5

Consider the compound "N=C(N)Nc1nc(-c2cccc(NC(=O)NCCc3c[nH]c4ccc(OCc5ccccc5)cc34)c2)cs1" and give its measured % inhibition female (individual replicates) R4.
37.8

###

The entries below are paired with their reported Average inhibition female (%).
# Test system: P. falciparum female gametocytes
# Assay notes: P. falciparum Dual Gamete Formation Assay (PfDGFA), female readout (Pfs25-positive female gametes)
# Assay type: cell-based, Plasmodium falciparum NF54
# Run conditions: PfDGFA at 2µM, 24h preincubation with gametocytes; average of replicates
A number alone suffices; assume %.

Worked examples follow.
>>> print(df.to_string())
                                   compound                recorded_metric  unit_spec  observed_value
0  Cn1c(-c2ccccc2)cc2c3c(N)nc(N)nc3ccc21 [TCMDC-137985]  Average inhibition female (%)          %             1.3
1  COc1cccc(CCc2c(CCNCCCCCCNCCc3ccccc3)ccc(OC)c2OC)c1.Cl [TCMDC-132105]  Average inhibition female (%)          %            52.1
2  CNCCNCc1ccc(-c2ccc(-c3nc4cccc(C)c4[nH]3)cc2)cc1.O=C(O)C(F)(F)F [TCMDC-132837]  Average inhibition female (%)          %            30.6
3  CN(C)CC(O)COc1ccc(Nc2ncc([N+](=O)[O-])c(Nc3ccccc3O)n2)cc1.O=C(O)C(F)(F)F (centres unmarked) [TCMDC-141399]  Average inhibition female (%)          %             9.6
4  COc1ccc(C[C@H](N)C(=O)N[C@H]2[C@@H](O)[C@H](n3cnc4c(N(C)C)ncnc43)O[C@@H]2CO)cc1.Cl [TCMDC-123927]  Average inhibition female (%)          %            38.8
5  COc1ccc(CNC2CCN(C)CC2)cc1-c1cccc(S(=O)(=O)NCc2ccccc2)c1.O=C(O)C(F)(F)F [TCMDC-132267]  Average inhibition female (%)          %            16.9

Recorded Average inhibition female (%) of CC1(C)CC(NCCCCCCCOc2ccc(OCc3ccccc3)cc2)CC(C)(C)N1.Cl [TCMDC-138958] , please.
23.9

Name the recorded Average inhibition female (%) for CC(C)(C)c1ccc(CNC(=O)c2ccc(CNC3CCC(N)CC3)s2)cc1 (centres unmarked) [TCMDC-140777] .
32.6

So what does the record say about Average inhibition female (%) for CCN1CCN(c2ccc(Nc3c4ccccc4nc4ccccc34)cc2)CC1 [TCMDC-124255] ?
-4.4

Which Average inhibition female (%) reading was recorded for the compound CC(C)Oc1ccc2ccccc2c1CNCCCCCCNCc1c(OC(C)C)ccc2ccccc12.CS(=O)(=O)O [TCMDC-137965] ?
48.8

What measured Average inhibition female (%) goes with CCCCOc1ccc(CNCCCCCCNCc2ccc(OCCCC)c3ccccc23)c2ccccc12.CS(=O)(=O)O [TCMDC-137281] ?
94.7

I am curious: what Average inhibition female (%) value has been reported for COc1ccc(CNC2CCN(C)CC2)cc1-c1ccc(S(=O)(=O)NCc2ccccc2)c(C)c1.O=C(O)C(F)(F)F [TCMDC-132480] ?
36.3

###

# Test system: HepG2 cells
# Assay notes: HepG2 cytotoxicity counter-screen
# Run conditions: cytotoxic activity against HepG2 cells
Recorded metric: Tox50 (µM)
Your answer should be a plain number; it is taken to be in µM.

See these solved cases before continuing.
In [3]: df
Out[3]:
                                   molecule  recorded_metric  observed_value
0  Nc1nc(N)c2c(ccc3c2ccn3Cc2ccc3c(c2)OCO3)n1 [TCMDC-137808]            Tox50            0.15
1  Cc1cc(Nc2ncc(C#N)c(Nc3ccccc3C(N)=O)n2)ccc1N1CCN(C)CC1.Cl [TCMDC-134115]            Tox50            1.03

# query: Tox50 | item COc1cc2nc(N3CCC(CNC(=O)c4ccc(-c5ccc(Cl)cc5)cc4)CC3)nc(N)c2cc1OC [TCMDC-138718] | system: HepG2 cells
6.93

Form entry - test system: HepG2 cells; read-out: Tox50; molecule: Cl.N=C(NCCCCC1CCCCC1)c1cccc(C(=N)NCCCCC2CCCCC2)n1 [TCMDC-137452]
2.66

###

# Tested on: P. falciparum female gametocytes
# Assay notes: P. falciparum Dual Gamete Formation Assay (PfDGFA), female readout (Pfs25-positive female gametes)
# Type: cell-based, Plasmodium falciparum NF54
# Run conditions: PfDGFA at 2µM, 24h preincubation with gametocytes; replicate R1
Recorded metric: % inhibition female (individual replicates) R1 (%)
# unit: % | format: bare number

Would you please look over these solved cases?
In [3]: df
Out[3]:
                                   molecule                measurement_target  observed_value
0  CCCCOc1ccc(C(=O)C(CCC(CNC(C)(C)C)C(=O)c2ccc(OCCCC)cc2)CNC(C)(C)C)cc1.Cl (stereo not shown)  P. falciparum female gametocytes            36.1
1  CN(C)CC(O)COc1ccc(Nc2ncc([N+](=O)[O-])c(Nc3ccccc3O)n2)cc1.O=C(O)C(F)(F)F (stereo not shown)  P. falciparum female gametocytes            0.18
2  CN1CCC(NCc2cccc(-c3nn(C)c4nc(NC5CCCC5)ncc34)c2)CC1  P. falciparum female gametocytes            22.9

Turning now to a further record.
Param item = "COc1ccccc1-c1nc2c(ccc3nc(N)nc(N)c32)[nH]1" ; retrieve measured % inhibition female (individual replicates) R1.
50.1

Origin of measurements: paper PMC10584170
